In this section we review reported chromatographic logD values for a set of compounds.
# ASSAY PROTOCOL: CHI Log D procedure
# Type: physicochemical
# STUDY CONDITIONS: pH 7.4, CHI Log D
Could you keep your reply to the number by itself?

Quick note, chromatographic logD for CC(=O)N1CCC[C@]12CC=CCCCC1(CCCC=CCCCCCC[C@@](C)(C(=O)N[C@@H](Cc3ccccc3Cl)C(=O)N[C@@H](Cc3csc4ccccc34)C(=O)N[C@@H](CCC(N)=O)C(N)=O)NC(=O)[C@H](CO)NC(=O)[C@H](Cc3ccccc3)NC(=O)[C@H](C)NC(=O)[C@H](C)NC(=O)[C@H](CN(CC(=O)O)CC(F)(F)F)NC(=O)[C@H](CC(=O)O)NC1=O)NC(=O)[C@H](CC(C)(C)C)NC(=O)[C@H](CC(=O)O)NC2=O (some centres unmarked) landed at 2.8

Lab note: measured chromatographic logD of CC(=O)N1CCC[C@]12CC=CCCCC1(CCCC=CCCCOC(=O)N3CC[C@@](C(=O)N[C@@H](Cc4ccsc4)C(=O)N[C@@H](Cc4csc5ccccc45)C(=O)N[C@@H](Cc4c[nH]cn4)C(N)=O)(C3)NC(=O)[C@H](CC(N)=O)NC(=O)[C@H](Cc3ccccc3)NC(=O)[C@H](C)NC(=O)[C@H](C)NC(=O)[C@H](CCC(N)=O)NC(=O)[C@H](CC(=O)O)NC1=O)NC(=O)[C@H](CC(C)(C)C)NC(=O)[C@H](CC(=O)O)NC2=O (some centres unmarked) was 2.27

Sure, the documented chromatographic logD for CC(=O)N1CCC[C@]12CC=CCCCC1(CCCC=CCCCOC(=O)N3CC[C@@](C(=O)N[C@@H](Cc4ccsc4)C(=O)N[C@@H](Cc4csc5ccccc45)C(=O)N[C@@H](CCC(N)=O)C(N)=O)(C3)NC(=O)[C@H](CC(N)=O)NC(=O)[C@H](CC(=O)O)NC(=O)[C@H](C)NC(=O)[C@H](C)NC(=O)[C@H](CC(=O)O)NC(=O)[C@H](CC(=O)O)NC1=O)NC(=O)[C@H](CC(C)(C)C)NC(=O)[C@H](Cc1ccccc1)NC2=O (some centres unmarked) is 2.32

response.value for CC(=O)N1CCC[C@]12CC=CCCCC1(CCCC=CCCCCCC[C@@](C)(C(=O)N[C@@H](Cc3ccccc3)C(=O)N[C@@H](Cc3csc4ccccc34)C(=O)N[C@@H](CCC(N)=O)C(N)=O)NC(=O)[C@H](CC(N)=O)NC(=O)[C@H](Cc3ccccc3)NC(=O)[C@H](C)NC(=O)[C@H](C)NC(=O)[C@H](CNS(C)(=O)=O)NC(=O)[C@H](CC(=O)O)NC1=O)NC(=O)[C@H](C)NC(=O)[C@H](CC(=O)O)NC2=O (some centres unmarked) (field: chromatographic logD) = 2.29

// chromatographic logD lookup, compound = CC[C@H](C)[C@@H]1NC(=O)[C@H](CC(=O)O)NC(=O)[C@]2(CC=CCCCC3(CCCC=CCCCCCC[C@@](C)(C(=O)N[C@@H](Cc4ccccc4)C(=O)N[C@@H](Cc4csc5ccccc45)C(=O)N[C@@H](CC(N)=O)C(N)=O)NC(=O)[C@H](CCC(N)=O)NC(=O)[C@H](Cc4ccccc4)NC(=O)[C@H](C)NC(=O)[C@H](C)NC(=O)[C@H](CCC(=O)O)NC(=O)[C@H](CC(=O)O)NC3=O)NC1=O)CCCN2C(C)=O (some centres unmarked) , result: 2.35

###

# ASSAY PROTOCOL: CHI Log D procedure
# Format: physicochemical
# STUDY CONDITIONS: pH 7.4, CHI Log D
Parameter chromatographic logD: see the listing below.

MOLECULE	chromatographic logD
CC(=O)N1CCC[C@]12CC=CCCCC1(CCCC=CCCCCCC[C@@](C)(C(=O)N[C@@H](Cc3ccccc3Cl)C(=O)N[C@@H](Cc3csc4ccccc34)C(=O)N[C@@H](CCC(N)=O)C(N)=O)NC(=O)[C@H]([C@@H](C)O)NC(=O)[C@H](Cc3ccccc3)NC(=O)[C@H](C)NC(=O)[C@H](C)NC(=O)[C@H](CN(CC(=O)O)CC(F)(F)F)NC(=O)[C@H](CC(=O)O)NC1=O)NC(=O)[C@H](CC(C)(C)C)NC(=O)[C@H](CC(=O)O)NC2=O (some centres unmarked)	2.96

# molecule CCCNC(=O)C[C@@H]1NC(=O)C2(CCCC=CCCCCCC[C@@](C)(C(=O)N[C@@H](Cc3ccccc3)C(=O)N[C@@H](Cc3csc4ccccc34)C(=O)N[C@@H](CCC(N)=O)C(N)=O)NC(=O)[C@H](C(C)C)NC(=O)[C@H](Cc3ccccc3)NC(=O)[C@H](C)NC(=O)[C@H](C)NC(=O)[C@H](CC(=O)O)NC1=O)CCCC=CC[C@]1(CCCN1C(C)=O)C(=O)N[C@@H](CC(=O)O)C(=O)N[C@@H](C)C(=O)N2 (some centres unmarked) ; its chromatographic logD = 2.87

###

# MEASUREMENT TARGET: full-length beta-Catenin (Uniprot ID P35222) (Homo sapiens)
# Construct: 10 nM full-length beta-Catenin (Uniprot ID P35222)
# Sequence (P35222 1-781): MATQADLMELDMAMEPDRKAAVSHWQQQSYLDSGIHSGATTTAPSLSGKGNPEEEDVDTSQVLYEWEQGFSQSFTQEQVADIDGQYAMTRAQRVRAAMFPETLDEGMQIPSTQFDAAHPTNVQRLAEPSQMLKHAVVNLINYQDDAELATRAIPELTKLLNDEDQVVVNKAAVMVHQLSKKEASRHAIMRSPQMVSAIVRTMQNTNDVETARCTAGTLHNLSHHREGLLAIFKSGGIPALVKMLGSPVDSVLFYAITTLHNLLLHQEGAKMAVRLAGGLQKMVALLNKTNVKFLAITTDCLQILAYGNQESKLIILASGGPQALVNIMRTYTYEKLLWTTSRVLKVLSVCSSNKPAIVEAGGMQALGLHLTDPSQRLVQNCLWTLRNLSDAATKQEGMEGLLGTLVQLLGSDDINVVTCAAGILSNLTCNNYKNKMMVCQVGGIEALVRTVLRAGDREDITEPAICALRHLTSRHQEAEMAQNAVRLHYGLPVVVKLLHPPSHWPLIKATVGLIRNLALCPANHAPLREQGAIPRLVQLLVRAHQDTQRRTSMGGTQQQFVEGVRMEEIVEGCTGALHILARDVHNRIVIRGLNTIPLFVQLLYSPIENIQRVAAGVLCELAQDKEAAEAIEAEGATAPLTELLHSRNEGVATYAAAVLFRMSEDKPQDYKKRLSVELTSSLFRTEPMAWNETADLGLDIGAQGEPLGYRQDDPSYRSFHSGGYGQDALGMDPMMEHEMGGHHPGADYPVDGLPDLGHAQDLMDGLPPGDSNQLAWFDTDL
# ASSAY PROTOCOL: Fluorescence polarization IC50 (beta-catenin / 5FAM-TCF4 10-53 competition)
# Assay type: binding
# STUDY CONDITIONS: fluorescence polarization; read-out: beta-Catenin FP IC50
MEASURED ATTRIBUTE: log10 of IC50 (log10 of the value in nM)
Annotation: log10 of IC50, nM basis.

Known log10 of IC50 results, listed for orientation:
MOLECULE	MEASUREMENT TARGET	log10 of IC50
CC(=O)N1CCC[C@]12CC=CCCCC1(CCCC=CCCCOC(=O)N3CC[C@@](C(=O)N[C@@H](Cc4ccccc4Cl)C(=O)N[C@@H](Cc4ccc5ccccc5c4)C(=O)N[C@@H](CCC(N)=O)C(N)=O)(C3)NC(=O)[C@H](CC(C)C)NC(=O)[C@H](Cc3ccccc3)NC(=O)[C@H](C)NC(=O)[C@H](C)NC(=O)[C@H](CC(=O)O)NC(=O)[C@H](CC(=O)O)NC1=O)NC(=O)[C@H](CC(C)(C)C)NC(=O)[C@H](CC(=O)O)NC2=O (some centres unmarked)	full-length beta-Catenin (Uniprot ID P35222) (Homo sapiens)	1.49
CC(=O)N1CCC[C@]12CC=CCCCC1(CCCC=CCCCCCC[C@@](C)(C(=O)N[C@@H](Cc3ccccc3)C(=O)N[C@@H](Cc3csc4ccccc34)C(=O)N[C@H](C(N)=O)[C@@H](C)O)NC(=O)[C@H](CC(N)=O)NC(=O)[C@H](Cc3ccccc3)NC(=O)[C@H](C)NC(=O)[C@H](C)NC(=O)[C@H](CCC(=O)O)NC(=O)[C@H](CC(=O)O)NC1=O)NC(=O)[C@H](CC(C)C)NC(=O)[C@H](CC(=O)O)NC2=O (some centres unmarked) [I-749]	full-length beta-Catenin (Uniprot ID P35222) (Homo sapiens)	1.60

Input CC(=O)N1CCC[C@]12CC=CCCCC1(CCCC=CCCCOC(=O)N3CC[C@@](C(=O)N[C@@H](Cc4ccsc4)C(=O)N[C@@H](Cc4csc5ccccc45)C(=O)N[C@@H](CCC(N)=O)C(N)=O)(C3)NC(=O)[C@H](CC(C)C)NC(=O)[C@H](Cc3ccccc3)NC(=O)[C@H](C)NC(=O)[C@H](C)NC(=O)[C@H](Cn3cc(CC4(C(=O)O)CC4)nn3)NC(=O)[C@H](CC(=O)O)NC1=O)NC(=O)[C@H](CC(C)(C)C)NC(=O)[C@H](CC(=O)O)NC2=O (some centres unmarked) . Output log10 of IC50: 0.70

Item: CC(=O)N1CCC[C@]12CC=CCCCC1(CCCC=CCCCOC(=O)N3CC[C@@](C(=O)N[C@@H](Cc4ccccc4)C(=O)N[C@@H](Cc4csc5ccccc45)C(=O)N[C@@H](CCC(N)=O)C(N)=O)(C3)NC(=O)[C@H](CC(C)C)NC(=O)[C@H](Cc3ccccc3)NC(=O)[C@H](C)NC(=O)[C@H](CCCCNC(C)C)NC(=O)[C@H](Cc3c[nH]cn3)NC(=O)[C@H](CC(=O)O)NC1=O)NC(=O)[C@H](CC1CCCCC1)NC(=O)[C@H](CC(N)=O)NC2=O (some centres unmarked) [I-2349] | log10 of IC50: 3.06

In plain terms, CC(=O)N1CCC[C@]12CC=CCCCC1(CCCC=CCCCOC(=O)N3CC[C@@](C(=O)N[C@@H](Cc4ccsc4)C(=O)N[C@@H](Cc4csc5ccccc45)C(=O)N[C@@H](CCC(N)=O)C(N)=O)(C3)NC(=O)[C@H](CC(C)C)NC(=O)[C@H](Cc3ccccc3)NC(=O)[C@H](CC(=O)N3CCN(C)CC3)NC(=O)[C@H](C)NC(=O)[C@H](CC(=O)O)NC(=O)[C@H](CC(=O)O)NC1=O)NC(=O)[C@H](CC(C)(C)C)NC(=O)[C@H](CC(=O)O)NC2=O (some centres unmarked) has a documented log10 of IC50 of 1.94
